Every entry's value here was drawn from patent US9643974B2.

MEASURED_ON: human full-length MKNK1 (Homo sapiens, UniProt Q9BUB5, T385D)
Sequence (Q9BUB5 1-424 isoform Q9BUB5-2 T344D): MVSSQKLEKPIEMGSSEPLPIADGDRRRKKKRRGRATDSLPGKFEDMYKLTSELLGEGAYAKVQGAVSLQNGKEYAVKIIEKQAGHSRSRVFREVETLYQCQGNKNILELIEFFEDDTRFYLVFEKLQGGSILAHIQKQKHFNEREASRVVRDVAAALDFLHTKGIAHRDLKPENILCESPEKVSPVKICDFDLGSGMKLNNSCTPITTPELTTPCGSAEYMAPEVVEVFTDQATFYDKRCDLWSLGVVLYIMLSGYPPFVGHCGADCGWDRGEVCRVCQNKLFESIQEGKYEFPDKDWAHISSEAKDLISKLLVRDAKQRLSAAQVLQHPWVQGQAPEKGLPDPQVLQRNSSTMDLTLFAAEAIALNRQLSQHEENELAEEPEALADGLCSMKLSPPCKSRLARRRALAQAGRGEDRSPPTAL
EXPERIMENT: MKNK1 kinase high ATP assay (TR-FRET-based)
COND: ATP final conc. 2 mM, 15 min preincubation, 30 min reaction at 22° C.
pIC50: −log10 of the molar value.
OBSERVABLE: pIC50

Guide cases for pIC50, answers given:
MOLECULE	pIC50
C[C@H](CN)Oc1ccc2ncc(-c3cc4cnccc4o3)n2n1 [Example 8]	6.87
COc1nccc2oc(-c3cnc4ccc(O[C@H]5CCC[C@@H]5N)nn34)cc12 [Example 31]	7.55
C[C@@H](N)COc1ccc2ncc(-c3cc4cnccc4o3)n2n1 [Example 26]	6.67

A = COc1nccc2oc(-c3cnc4ccc(OC[C@@H](N)c5ccccc5)nn34)cc12 [Example 4]
B = C[C@H](N)COc1ccc2ncc(-c3cc4c(OCC(C)(C)C)nccc4o3)n2n1 [Example 34]
Q: Would you kindly point out which of A and B has the smaller pIC50 figure? Kindly give the label for the entry you pick.
Result: A
(A: 7.04, B: 7.82)
